B1: ESRRG (parent)
chain: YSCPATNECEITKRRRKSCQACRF

- Variants of: B1
- procedure.text: protein stability index of a GFP-peptide fusion (GPS, HEK-293T) (PSI 1-6); higher = more stable;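 further: lentivirally expressed fusions sorted by FACS into six bins by GFP to DsRed ratio, PSI derived from sequencing read proportions per bin multiplied by bin number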
- experimental.conditions: c terminus: a fixed tail appended
Recorded protein stability index for the following variants
# answer = number (no unit)

[
  {
    "residue.change": "K17D",
    "protein stability index": 3.37
  },
  {
    "residue.change": "R23D",
    "protein stability index": 3.88
  },
  {
    "residue.change": "K17T",
    "protein stability index": 2.92
  },
  {
    "residue.change": "K13P",
    "protein stability index": 3.46
  }
]

Prompt line: Identify measured protein stability index associated with "I11L"
Response line: 2.88

Prompt line: Identify measured protein stability index associated with "R14P"
Response line: 3.13
